- system_tested: Adenosine receptor A2a (Homo sapiens, UniProt P29274)
- Sequence (P29274 whole entry): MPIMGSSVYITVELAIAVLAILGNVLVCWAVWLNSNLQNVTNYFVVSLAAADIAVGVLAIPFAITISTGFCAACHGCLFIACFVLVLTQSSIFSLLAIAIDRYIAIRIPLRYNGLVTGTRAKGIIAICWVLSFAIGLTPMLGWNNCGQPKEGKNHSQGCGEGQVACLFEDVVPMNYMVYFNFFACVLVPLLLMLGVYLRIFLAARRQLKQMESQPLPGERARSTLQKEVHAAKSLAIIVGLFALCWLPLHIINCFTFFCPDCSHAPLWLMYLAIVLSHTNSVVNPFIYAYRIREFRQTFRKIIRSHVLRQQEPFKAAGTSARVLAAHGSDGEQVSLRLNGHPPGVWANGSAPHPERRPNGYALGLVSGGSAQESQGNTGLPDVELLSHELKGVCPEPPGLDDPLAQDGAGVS
- assay_method_text: Inhibitory activity against membranes from HEK293 cells stably expressing the human A2a receptor (hA2a)
- Format: cell-based
pIC50: −log10 of the molar value.
assay_endpoint: pIC50

// below: answered compounds
# smiles_text, pIC50
measured = [
    ("Cc1[nH]c2nc(-c3ccccc3)nc(N[C@@H]3CCCCNC3=O)c2c1C", 5.68),
    ("Cc1nc2nc(-c3ccccc3)[nH]c(N[C@H](C)c3ccccc3)c-2c1C", 5.41),
    ("Cc1[nH]c2nc(-c3ccccc3)nc(N[C@H](CO)CC(C)C)c2c1C", 5.57),
    ("Cc1[nH]c2nc(-c3ccccc3)nc(NCc3ccncc3)c2c1C", 5.70),
    ("CC(=O)NCCNc1nc(-c2ccccc2)nc2[nH]c(C)c(C)c12", 7.32),
]

P: Cc1[nH]c2nc(-c3ccccc3)nc(NCCN3CCNC3=O)c2c1C
Q: Cc1[nH]c2nc(-c3ccccc3)nc(N[C@@H]3Cc4ccccc4[C@H]3O)c2c1C
Compare P and Q by numeric pIC50 and name the larger one. Kindly state the label of the option you pick. P

----------
Target sequence: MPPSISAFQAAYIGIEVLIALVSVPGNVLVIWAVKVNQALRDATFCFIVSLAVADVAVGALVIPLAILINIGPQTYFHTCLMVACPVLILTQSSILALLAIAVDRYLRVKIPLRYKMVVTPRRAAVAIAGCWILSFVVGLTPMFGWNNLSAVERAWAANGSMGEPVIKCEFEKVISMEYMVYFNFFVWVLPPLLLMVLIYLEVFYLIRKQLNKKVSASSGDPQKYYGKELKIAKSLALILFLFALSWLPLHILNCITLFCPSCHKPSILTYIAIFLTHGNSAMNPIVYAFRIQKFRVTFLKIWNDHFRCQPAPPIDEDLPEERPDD
pKi: −log10 of the molar value.
assay_endpoint: pKi

// below: answered compounds
# smiles_text, pKi
measured = [
    ("Cc1nc2nc(-c3ccccc3)[nH]c(N[C@H](C)c3ccccc3)c-2c1C", 6.01),
    ("Cc1[nH]c2nc(-c3ccccc3)nc(N[C@H](CO)CC(C)C)c2c1C", 6.02),
]

A: Cc1[nH]c2nc(-c3ccccc3)nc(N[C@@H]3CCCCNC3=O)c2c1C
B: Cc1[nH]c2nc(-c3ccccc3)nc(NCc3ccncc3)c2c1C
Sorting ascending by pKi, which comes first: A or B ? Kindly state the label of the option you pick. A

----------
- system_tested: Adenosine receptor A2a (Homo sapiens)
- assay_method_text: Inhibitory activity against binding of [3H]CGS-21680 to human A2a receptor (hA2a) using competition binding assay
assay_endpoint: IC50 (nM)

# smiles_text, assay_endpoint, readout_units, endpoint_value
measured = [
    ("Cc1[nH]c2nc(-c3ccccc3)nc(NCCN3CCNC3=O)c2c1C", "IC50", "nM", 604),
]

P: Cc1[nH]c2nc(-c3ccccc3)nc(NCc3ccncc3)c2c1C
Q: Cc1[nH]c2nc(-c3ccccc3)nc(N[C@H](CO)CC(C)C)c2c1C
Sorting ascending by IC50, which comes first: P or Q ? Kindly state the label of the option you pick. P
(P: 1710 nM, Q: 3400 nM)

----------
- system_tested: Adenosine receptor A1 (Homo sapiens, UniProt P30542)
- Sequence (P30542 whole entry): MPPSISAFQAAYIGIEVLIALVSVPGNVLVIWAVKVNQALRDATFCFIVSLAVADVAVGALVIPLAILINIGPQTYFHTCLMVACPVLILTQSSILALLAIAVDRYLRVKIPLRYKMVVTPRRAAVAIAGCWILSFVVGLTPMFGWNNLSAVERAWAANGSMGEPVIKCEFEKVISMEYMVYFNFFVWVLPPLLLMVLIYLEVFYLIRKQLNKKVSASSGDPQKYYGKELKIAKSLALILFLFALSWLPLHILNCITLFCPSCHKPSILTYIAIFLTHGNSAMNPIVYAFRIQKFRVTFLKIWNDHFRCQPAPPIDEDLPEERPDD
- assay_method_text: Inhibitory activity against binding of [3H]DPCPX to human A1 receptor (hA1) using competition binding assay
assay_endpoint: IC50 (nM)

# smiles_text, assay_endpoint, endpoint_value
records = [
    ("Cc1[nH]c2nc(-c3ccccc3)nc(N[C@@H]3CCCCNC3=O)c2c1C", "IC50", 1540),
    ("Cc1[nH]c2nc(-c3ccccc3)nc(NCCN3CCNC3=O)c2c1C", "IC50", 364),
    ("Cc1nc2nc(-c3ccccc3)[nH]c(N[C@H](C)c3ccccc3)c-2c1C", "IC50", 1980),
    ("Cc1[nH]c2nc(-c3ccccc3)nc(N[C@H](CO)CC(C)C)c2c1C", "IC50", 1910),
]

a: Cc1[nH]c2nc(-c3ccccc3)nc(N[C@@H]3Cc4ccccc4[C@H]3O)c2c1C
b: Cc1[nH]c2nc(-c3ccccc3)nc(NCc3ccncc3)c2c1C
Sorting ascending by IC50, which comes first: a or b ? Kindly state the label of the option you pick. b
(b: 262 nM, a: 1810 nM)
